- System: RXF 393 renal
- Measurement Notes: NCI-60 one-dose screen, 48 h
- Experimental Conditions: 10 µM unless noted
Compounds without any hit were thinned out: in the full panel of roughly 83,000, 20% have a hit. Activity calls are given as the source filed them. Rule for the calls: active = growth percent below 10; inactive = the rest.
Choose one outcome from this list and give only that: t (active), f (inactive)

Which outcome was assigned to O=C1CSC(c2ccccc2Cl)N1c1nnc(Cn2nnc3ccccc32)o1 (stereo unspecified) in this test?
f

Which outcome was assigned to `O=C(NCCNC(=O)Oc1cccc2ccccc12)Oc1cccc2ccccc12` in this test?
f

Which outcome was assigned to `O=CNc1ccc2c(c1)Cc1cc([N+](=O)[O-])ccc1-2` in this test?
t

Which outcome was assigned to C#C[C@]1(O)CCC2C3CCc4cc(O)ccc4C3CC[C@@]21C (stereo partly specified) in this test?
f

Which outcome was assigned to `COC(=O)[C@H](Cc1cnc[nH]1)NC(=O)[C@@H](NC(=O)Nc1cc(C(F)(F)F)cc(C(F)(F)F)c1)C(C)C` in this test?
t

Which outcome was assigned to `CSc1nc(N)c2c(n1)N(C)C=NS2(=O)=O` in this test?
f

Which outcome was assigned to `Cc1ccc(-c2csc(N)n2)cc1` in this test?
f

Which outcome was assigned to `O=C(NC1CCCCC1)c1ccc(Nc2ncnc3c2cnn3-c2ccccc2)cc1` in this test?
f

Which outcome was assigned to `CCSc1nc(-c2ccco2)n2nc(-c3ccco3)cc2n1` in this test?
f

Which outcome was assigned to `CCOc1cc(/C=C/C(=O)CC(=O)/C=C/c2ccc(OC(=O)CNCCN(CC)CC)c(OCC)c2)ccc1OC(=O)CNCCN(CC)CC` in this test?
t

Which outcome was assigned to `O=C(Nc1cccc(-n2cc(-c3ccncc3)c(-c3cc(O)cc(Cl)c3)n2)c1)Nc1ccc(Cl)c(Cl)c1` in this test?
t

Which outcome was assigned to COc1ccc(C2=NN(C=O)C(c3cccc(Nc4ccnc5cc(Cl)ccc45)c3)C2)cc1 (stereo unspecified) in this test?
f

Which outcome was assigned to `COc1cc(/C=C/c2cc(/C=C/c3ccc(O)c(OC)c3)n(C(=O)Cc3ccccc3)n2)ccc1O` in this test?
t

Which outcome was assigned to `Nc1ccc2c(c1)Cc1cc(Cl)c(Cl)cc1-2` in this test?
f

Which outcome was assigned to `Cc1csc(C#Cc2cncc(O)c2)n1` in this test?
f

Which outcome was assigned to Cn1c(N2N=C(c3ccc(Cl)cc3)CC2c2ccccc2)nc(-c2ccccc2)c(C#N)c1=O (stereo unspecified) in this test?
f

Which outcome was assigned to `FCc1ncc(-c2ccc(C(F)(F)F)cc2)c(NC2CCCCCC2)n1` in this test?
t

Which outcome was assigned to `Nc1ccccc1C#Cc1ccccc1C#Cc1ccc(OCCCCCCOc2ccc(C#Cc3ccccc3C#Cc3ccccc3N)cc2)cc1` in this test?
f

Which outcome was assigned to `Cc1ccc(C2=Nc3c(ccc4c(C)c(C)c(=O)oc34)OC2)cc1` in this test?
f

Which outcome was assigned to CCCCOP(=O)(OCCCC)C(C(=O)OCC)C(CC(=O)OCC)C(=O)OCC (stereo unspecified) in this test?
f

Which outcome was assigned to `Cc1sc2nc(N3CCCCC3)[nH]c(=O)c2c1C` in this test?
f

====

- System: HOP-62 NSCLC
- Measurement Notes: NCI-60 one-dose screen, 48 h
- Experimental Conditions: 10 µM unless noted
The panel holds about 83,000 compounds, 20% with a hit somewhere; the sample as a whole holds those more often. The source made the active and inactive calls. Rule for the calls: active = growth percent below 10; inactive = the rest.
Choose one outcome from this list and give only that: TRUE (active), FALSE (inactive)

Which outcome was assigned to CCSCC1CC(O)(c2ccccc2)C(c2ccccc2)C(c2ccc(Cl)cc2)O1 (centres undefined) in this test?
FALSE

Which outcome was assigned to `Nc1ncnc2c1CN(Cc1ccccc1)CC2` in this test?
FALSE

Which outcome was assigned to O=C1OC(Oc2ccccc2)(c2ccccc2)c2ccccc21 (centres undefined) in this test?
FALSE

Which outcome was assigned to `COc1cc(/C=C/C(=O)CC(=O)/C=C/c2ccc(OC(=O)CCNC34CC5CC(CC(C5)C3)C4)c(OC)c2)ccc1OC(=O)CCNC12CC3CC(CC(C3)C1)C2` in this test?
FALSE

Which outcome was assigned to `COc1cnc2c(c1)C(=O)c1c-2n(CCCN2CCOCC2)c(=O)c2cc(F)ccc12` in this test?
TRUE

Which outcome was assigned to `O=C(c1ccc(N2CCOCC2)cc1[N+](=O)[O-])N1CCOCC1` in this test?
FALSE

Which outcome was assigned to `COc1cccc(/C=N\NC(=O)c2ccncc2)c1O` in this test?
FALSE

Which outcome was assigned to Cn1c(N2N=C(c3ccc(Cl)cc3)CC2c2ccccc2)nc(-c2ccccc2)c(C#N)c1=O (centres undefined) in this test?
FALSE

Which outcome was assigned to `Cc1cc2ccccn2c1C(=O)c1ccc(C(=O)c2ccccc2)cc1` in this test?
FALSE

Which outcome was assigned to O=C(c1ccccc1)C(CN1CCCCC1)c1ccccc1 (centres undefined) in this test?
FALSE

Which outcome was assigned to `CCOC(=O)/C(=C/CC/C(C)=C/CC/C(C)=C/CCc1ccoc1)CC(=O)N1CCCCC1` in this test?
FALSE

Which outcome was assigned to `COC(=O)[C@H](Cc1cn(C)cn1)NC(=O)[C@H](Cc1ccccc1)NC(=O)Nc1cc(C(F)(F)F)cc(C(F)(F)F)c1` in this test?
TRUE

Which outcome was assigned to `CCn1cnc(C[C@H](NC(=O)[C@H](CCCCNC(=O)Nc2cc(C(F)(F)F)cc(C(F)(F)F)c2)NC(=O)Nc2cc(C(F)(F)F)cc(C(F)(F)F)c2)C(=O)OC)c1` in this test?
TRUE

Which outcome was assigned to `O=C1/C(=C/c2ccccc2O)C(=S)SN1Cc1ccco1` in this test?
FALSE

Which outcome was assigned to `Nc1nc2c(c(=O)[nH]1)C1(C(=O)Nc3ccccc31)c1c(nc(N)[nH]c1=O)N2` in this test?
FALSE

Which outcome was assigned to `CCCCCCCCCCCCCCCCNC(=O)Nc1ccc2ccccc2c1` in this test?
FALSE

Which outcome was assigned to `CC(=O)Nc1ccc(C(=O)COc2cccc(/C=C3\CCc4ccccc4C3=O)c2)cc1` in this test?
FALSE

Which outcome was assigned to `O=C(O)c1ccc(CNS(=O)(=O)c2ccc3ccccc3c2)cc1` in this test?
FALSE

Which outcome was assigned to `C[C@]12CC[C@H](O)CC1=CC[C@@H]1[C@@H]2CC[C@]2(C)C(c3cccnc3)=CC[C@@H]12` in this test?
FALSE

====

- System: SF-539 CNS
- Measurement Notes: NCI-60 one-dose screen, 48 h
- Experimental Conditions: 10 µM unless noted
The panel holds about 83,000 compounds, 20% with a hit somewhere; the sample as a whole holds those more often. Calls of active or inactive are those of the source. How the source made its calls: active means growth percent below 10; inactive means the rest.
Choose one outcome from this list and give only that: T (active), F (inactive)

Which outcome was assigned to `CCN(CC)CCSc1ncnc2c1cnn2-c1ccc(S(N)(=O)=O)cc1` in this test?
F

Which outcome was assigned to `CN(C)CCCN=c1cc2c(=O)n(CCCN(C)C)c(=O)c3c(NCCCN(C)C)cc4c(O)n(CCCN(C)C)c(=O)c1c4c3-2` in this test?
T

Which outcome was assigned to `[N-]=[N+]=NCc1cccc(/C(O)=C/C(=O)C(=O)O)c1` in this test?
F

Which outcome was assigned to `Nc1nc(Nc2ccccc2SSc2ccccc2Nc2nc(N)nc(-c3cccc(Cl)c3)n2)nc(-c2cccc(Cl)c2)n1` in this test?
F

Which outcome was assigned to `COc1cccc(/C=N\NC(=O)c2ccncc2)c1O` in this test?
F

Which outcome was assigned to O=C(c1ccccc1)C(CN1CCCCC1)c1ccccc1 (centres undefined) in this test?
T

Which outcome was assigned to COC(=O)C1=CCC(n2cnc3c(N)ncnc32)O1 (centres undefined) in this test?
F

Which outcome was assigned to `O=C1NC(=S)S/C1=C\c1cc(Br)ccc1O` in this test?
F

Which outcome was assigned to `NC(=NCCCCCCN=C(N)/N=C(\N)Nc1ccc(Cl)cc1)/N=C(\N)Nc1ccc(Cl)cc1` in this test?
T

Which outcome was assigned to `COc1cc(Cl)cc(-c2nn(-c3cccc(NC(=O)c4cc(C(F)(F)F)cc(C(F)(F)F)c4)c3)cc2-c2ccncc2)c1` in this test?
F

Which outcome was assigned to `O=C(CNC(=O)c1cccc2ccccc12)Nc1ccccc1Cc1ccccc1` in this test?
F

Which outcome was assigned to CC(=O)OC1Oc2cc(C)c(C)cc2-c2oc(=O)c(-c3ccccc3)cc21 (centres undefined) in this test?
T

Which outcome was assigned to `CC(C)N(Cc1ccccc1)c1c(Cl)ssc1=O` in this test?
F

Which outcome was assigned to `C[C@@H]1CN(c2nc3c(cc2F)c(=O)c(C(=O)O)cn3C(C)(C)C)C[C@H](C)N1` in this test?
F

Which outcome was assigned to `COc1cccc2c1C(=O)c1c(O)c3c(c(O)c1C2=O)C[C@@](O)(C(C)=O)C[C@@H]3O[C@H]1C[C@H](N)[C@H](O)[C@H](C)O1` in this test?
T

Which outcome was assigned to Cc1ccc2c(c1)C(=O)/C(=C\Nc1ccc(C(N)=O)cc1)C(O)O2 (centres undefined) in this test?
F

Which outcome was assigned to `c1ccc(-c2nc(Nc3nccnn3)c3ccccc3n2)cc1` in this test?
F

Which outcome was assigned to `CCCCN=C(N)c1ccc(OCCSCCOc2ccc(C(N)=NCCCC)cc2)cc1` in this test?
F

Which outcome was assigned to `CCCCCCCCCCOC(C)=O` in this test?
F

Which outcome was assigned to `O=C(O)CNC(=O)C1(N2C(=O)c3ccccc3C2=O)CCCC1` in this test?
F

Which outcome was assigned to `O=C(/C=C(\Nc1ccccc1)c1ccccc1)c1cn(-c2ccc([N+](=O)[O-])cc2)nn1` in this test?
F

Which outcome was assigned to `CCOc1cc(/C=C/C(=O)CC(=O)/C=C/c2ccc(OC(=O)CNc3nc4ccc(OC)cc4s3)c(OCC)c2)ccc1OC(=O)CNc1nc2ccc(OC)cc2s1` in this test?
T

Which outcome was assigned to CC(C)CC1NC(=O)C(CCCN)NC(=O)C(C(C)C)NC(=O)C2CCCN2C(=O)C(Cc2ccccc2)NC(=O)C(CC(C)C)NC(=O)C(CCCN)NC(=O)C(C(C)C)NC(=O)C2CCCN2C(=O)C(Cc2ccccc2)NC1=O (centres undefined) in this test?
T

Which outcome was assigned to `C[C@H](C(=O)N[C@@H](Cc1ccc(-c2ccccc2)cc1)C(=O)NC1CC(C)(C)N(C)C(C)(C)C1)c1ccc(-c2ccccc2)c(F)c1` in this test?
T

Which outcome was assigned to `O=C(COc1ccc(/C=C2\Oc3ccc4ccccc4c3C2=O)cc1)c1ccc([N+](=O)[O-])cc1` in this test?
F

Which outcome was assigned to `CSc1nc2nc3c(nc2c(=O)n1C)C(=O)c1ccccc1C3=O` in this test?
T

Which outcome was assigned to `O=C1/C(=C\c2coc3ccccc3c2=O)c2ccccc2N1c1c(Cl)cccc1Cl` in this test?
F

Which outcome was assigned to `CC[C@@H](c1ccc(O)c(O)c1)[C@@H](CC)c1ccc(O)c(O)c1` in this test?
F

Which outcome was assigned to `Cc1cc(=O)[nH]c(/C(=N/Nc2ccccc2)C(=O)c2ccc(Cl)cc2)n1` in this test?
F

Which outcome was assigned to `CCCCCCCCCCNCCSS(=O)(=O)O` in this test?
F

Which outcome was assigned to `CCSc1ncc(Br)c(Sc2nc(N)nc3nc[nH]c23)n1` in this test?
F

Which outcome was assigned to `COc1ccc2nc(NC(=O)CN3CCn4c(nnc4C(F)(F)F)C3)sc2c1` in this test?
F

Which outcome was assigned to `CC(=O)Nc1ccc(C(=O)COc2cccc(/C=C3\CCc4ccccc4C3=O)c2)cc1` in this test?
F

Which outcome was assigned to `CCOC(=O)C(C(=O)OCC)C1CCCCC1` in this test?
F

Which outcome was assigned to NC(=O)NS(=O)(=O)c1ccc(N2N=C(C(F)(F)F)CC2c2cc(C(F)(F)F)cc(C(F)(F)F)c2)cc1 (centres undefined) in this test?
F

Which outcome was assigned to `O=C(O)CCC(=O)OC[C@@H](NC(=O)C(Cl)Cl)[C@H](O)c1ccc([N+](=O)[O-])cc1` in this test?
F

Which outcome was assigned to `Cc1ccc(NC(=O)c2sc3nc4c(cc3c2N)C(=O)CCC4)cc1` in this test?
F

Which outcome was assigned to `Cc1cccc2nnc(-c3ccccc3)n12` in this test?
F

Which outcome was assigned to `CCCn1c(N)c(C(=O)CNc2ccc(I)cc2)c(=O)[nH]c1=O` in this test?
F
